Test system: Escherichia coli (ATCC 25922)
CONDITION INFO: ATCC 25922
Positions of bridges follow the written chain, without caps; N, C: chain ends. Residues, ends and D or L forms follow the SMILES beside them.
# E. coli (ATCC 25922) MIC per entry
Unit µg/mL implied. Number only.

# example entries with known answers
Enquiry: Look up E. coli (ATCC 25922) MIC: N=C(N)NCCC[C@@H]1NC(=O)[C@H](CCCNC(=N)N)NC(=O)[C@H](CCCNC(=N)N)NC(=O)[C@H](Cc2c[nH]c3ccccc23)NC(=O)[C@H](Cc2c[nH]c3ccccc23)NC(=O)[C@H](Cc2c[nH]c3ccccc23)NC(=O)[C@H](Cc2c[nH]c3ccccc23)NC(=O)[C@H](CCCNC(=N)N)NC1=O [[R4W4], reference compound] (cyclo(RRRRWWWW))
Return: 16

Enquiry: Look up E. coli (ATCC 25922) MIC: N=C(N)NCCC[C@H](NC(=O)[C@H](CCCNC(=N)N)NC(=O)[C@H](CCCNC(=N)N)NC(=O)[C@@H](N)CCCNC(=N)N)C(=O)N[C@H]1CSSC[C@@H](C(=O)O)NC(=O)[C@H](Cc2c[nH]c3ccccc23)NC(=O)[C@H](Cc2c[nH]c3ccccc23)NC(=O)[C@H](Cc2c[nH]c3ccccc23)NC(=O)[C@H](Cc2c[nH]c3ccccc23)NC1=O [IFX-333] (H-RRRRCWWWWC-OH; disulfide 5-10)
Return: 16

Next:
Enquiry: Look up E. coli (ATCC 25922) MIC: N=C(N)NCCC[C@H](NC(=O)[C@H](CCCNC(=N)N)NC(=O)[C@H](CCCNC(=N)N)NC(=O)[C@H](CCCNC(=N)N)NC(=O)[C@@H](N)CS)C(=O)N[C@@H](Cc1c[nH]c2ccccc12)C(=O)N[C@@H](Cc1c[nH]c2ccccc12)C(=O)N[C@@H](Cc1c[nH]c2ccccc12)C(=O)N[C@@H](Cc1c[nH]c2ccccc12)C(=O)N[C@@H](CS)C(=O)O [IFX-328] (H-CRRRRWWWWC-OH)
Return: 256

---

ASSAY COMMENT: in vitro
CONDITION INFO: human, fresh human red blood cells (washed), pH 7.4
Non-standard residues stand in square brackets, D forms with d. Residues, ends and D or L forms follow the SMILES beside them. 2Nal = N[C@@H](Cc1ccc2ccccc2c1)C(=O)O
ASSAY METRIC: HC50 at 0.5 h (µg/mL)
Unit µg/mL implied. Number only.

Enquiry: Look up HC50 at 0.5 h: N=C(N)NCCC[C@H]1NC(=O)[C@H](Cc2ccc3ccccc3c2)NC(=O)[C@H](Cc2ccc3ccccc3c2)NC(=O)[C@@H](Cc2c[nH]c3ccccc23)NC(=O)[C@@H](CCCNC(=N)N)NC(=O)[C@@H](CCCNC(=N)N)NC(=O)[C@@H](CCCNC(=N)N)NC(=O)[C@@H](CCCNC(=N)N)NC1=O [IFX-123, c[arg-arg-arg-arg-arg-trp-NaI-NaI]] (cyclo([2Nal][2Nal][dR][dR][dR][dR][dR][dW]))
Return: 190

Next:
Enquiry: Look up HC50 at 0.5 h: N=C(N)NCCC[C@@H]1NC(=O)[C@H](Cc2ccc3ccccc3c2)NC(=O)[C@H](Cc2ccc3ccccc3c2)NC(=O)[C@@H](Cc2c[nH]c3ccccc23)NC(=O)[C@@H](CCCNC(=N)N)NC(=O)[C@@H](CCCNC(=N)N)NC(=O)[C@H](CCCNC(=N)N)NC1=O [IFX-120, c[Arg-Arg-arg-arg-trp-NaI-NaI]] (cyclo(RR[dR][dR][dW][2Nal][2Nal]))
Return: 195

Enquiry: Look up HC50 at 0.5 h: N=C(N)NCCC[C@H]1NC(=O)[C@H](Cc2ccc3ccccc3c2)NC(=O)[C@H](Cc2ccc3ccccc3c2)NC(=O)[C@@H](Cc2c[nH]c3ccccc23)NC(=O)[C@@H](CCCNC(=N)N)NC(=O)[C@@H](CCCNC(=N)N)NC(=O)[C@@H](CCCNC(=N)N)NC1=O [IFX-122, c[arg-arg-arg-arg-trp-NaI-NaI]] (cyclo([2Nal][2Nal][dR][dR][dR][dR][dW]))
Return: 220
